Target or system Stromelysin-1 (Homo sapiens, UniProt P08254): recorded IC50 listed per item.
// return numeric value only (unit: nM, not printed)

**Query** Supply recorded IC50 for CCCCCCC(N[C@@H](CCc1ccccc1)C(=O)N[C@@H](CCCN=C(N)N)C(=O)N[C@@H](CCC(N)=O)C(=O)OC)C(=O)O (some centres not stated) here.
**Result** 900

**Query** Provide only the value of recorded IC50 for CCCCCCC(N[C@@H](CCc1ccccc1)C(=O)N[C@@H](CCCN=C(N)N)C(=O)N[C@@H](Cc1cc2ccccc2[nH]1)C(=O)OC)C(=O)O (some centres not stated)
**Result** 900
